Cited source: patent EP4745118A1

- Test system: Vero cells
- ASSAY: Vero cytotoxicity (CCK-8)
- Assay type: cell-based
- ASSAY CONDITIONS: Chlorocebus sabaeus; Vero cells, 24 hours incubation, CCK-8; read-out: IC50
# IC50 annotations
PARAMETER MEASURED: IC50

item_smiles=CO[C@H]1CCC[C@@H]1C#CC#Cc1ccc(C(=O)N[C@H](C(=O)NO)C(C)(C)N)cc1 measured_on="Vero cells" parameter_measured=IC50 result="> 64 µM"
item_smiles=COC[C@@H]1C[C@H]1C#CC#Cc1ccc(C(=O)N[C@H](C(=O)NO)C(C)(C)N)cc1 measured_on="Vero cells" parameter_measured=IC50 result="> 128 µM"
item_smiles=COC[C@H]1C[C@H]1C#CC#Cc1ccc(C(=O)N[C@H](C(=O)NO)C(C)(C)N)cc1 measured_on="Vero cells" parameter_measured=IC50 result="> 128 µM"
item_smiles=COC[C@@H]1C[C@@H]1C#CC#Cc1ccc(C(=O)N[C@H](C(=O)NO)C(C)(C)N)cc1 measured_on="Vero cells" parameter_measured=IC50 result="> 128 µM"
